Origin of values: patent US20030068615A1

- system.name: HIV-1LAI envelope gp120 (Human immunodeficiency virus type 1 group M subtype B)
- Assay type: binding
- condition: CCR5 18-mer scan; radiolabeled HIV-1LAI gp120; background subtracted
Can you tell me Counts per 20′ Average-background for the items I'm about to list?
State the value, then name its unit.

residues="MIVYFLFWAPYNIVLLLN [CCR5 segment 241-]" property_name="Counts per 20′ Average-background" observed_result="214 counts per 20′"
residues=SVITWVVAVFASLPGIIF property_name="Counts per 20′ Average-background" observed_result="46 counts per 20′"
residues=GLHYTCSSEFPYSQYQFW property_name="Counts per 20′ Average-background" observed_result="301 counts per 20′"
residues="NPIIYAFVGEKFRNYLLV [CCR5 segment 293-]" property_name="Counts per 20′ Average-background" observed_result="162 counts per 20′"

Would you be so kind as to report Counts per 20′ Average-background for each listed record?
1. LLNLAISDLFFLLTVPFW [CCR5 segment 69-86]
2. CYSGILKTLLRCRNEKKR
3. FQTLKIVILGLVLPLLVM [CCR5 segment 193-]
4. IFTIMIVYFLFWAPYNIV [CCR5 segment 237-]
5. VFASLPGIIFTRSQKEGL [CCR5 segment 157-]
6. LFFLLTVPFWAHYAAAQW [CCR5 segment 77-94]
7. QKINVKQIAARLLPPLYS [CCR5 segment 21-38]
8. FIGFFSGIFFIILLTIDR

stdout:
1. 144 counts per 20′
2. 70 counts per 20′
3. 45 counts per 20′
4. 121 counts per 20′
5. 54 counts per 20′
6. 173 counts per 20′
7. 20 counts per 20′
8. 76 counts per 20′

stdin: Provide Counts per 20′ Average-background value for the following sequence: AVFALKARTVTFGVVTSV
stdout: 63 counts per 20′
